Target: SHP2 protein (Homo sapiens)
Sequence (Q06124 1-593): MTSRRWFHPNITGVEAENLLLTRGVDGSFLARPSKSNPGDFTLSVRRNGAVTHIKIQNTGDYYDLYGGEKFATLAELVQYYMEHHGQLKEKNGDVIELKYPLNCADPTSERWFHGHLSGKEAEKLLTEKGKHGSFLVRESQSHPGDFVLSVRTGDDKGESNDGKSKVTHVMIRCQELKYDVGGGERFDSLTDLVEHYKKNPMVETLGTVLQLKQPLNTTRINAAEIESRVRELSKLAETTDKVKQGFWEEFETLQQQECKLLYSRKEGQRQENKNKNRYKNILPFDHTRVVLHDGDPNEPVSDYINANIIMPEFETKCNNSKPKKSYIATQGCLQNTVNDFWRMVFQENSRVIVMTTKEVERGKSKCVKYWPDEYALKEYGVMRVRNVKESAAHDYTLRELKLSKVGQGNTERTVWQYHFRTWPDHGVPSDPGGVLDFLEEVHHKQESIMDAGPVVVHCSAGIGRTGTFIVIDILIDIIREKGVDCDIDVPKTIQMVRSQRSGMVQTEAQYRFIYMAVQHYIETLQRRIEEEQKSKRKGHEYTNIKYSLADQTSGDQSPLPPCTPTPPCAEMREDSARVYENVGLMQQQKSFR
Assay: Degradation activity on SHP2 protein in MIA Paca-2 cells (Western blot, DC50)
Type: cell-based
Set-up: endogenous in cells; host or cells: MIA Paca-2 cells
Conditions: read-out: Degradation activity for differenct cell lines MIA Paca-2 (DC50)

[
  {
    "compound": "CC1(N)CCN(c2cnc(Sc3cccc(NC(=O)c4ccc(N5CCC(N6CCC(c7ccc(C(=O)NCc8ccc9c(c8)CN(C8CCC(=O)NC8=O)C9=O)nc7)CC6)CC5)cc4)c3)cn2)CC1 (stereo not drawn) [Compound 372]",
    "DC50": "< 100 nM"
  },
  {
    "compound": "CC1(N)CCN(c2cnc(Sc3cccc(NC(=O)CCCCCOc4ccc(-c5ccc(C(=O)NCc6ccc7c(c6)CN(C6CCC(=O)NC6=O)C7=O)nc5)cc4)c3)cn2)CC1 (stereo not drawn) [Compound 213]",
    "DC50": "> 1000 nM"
  },
  {
    "compound": "CC1(N)CCN(c2cnc(Sc3cccc(NC(=O)/C=C/C(=O)N4CCN(CCCCCCCCC(=O)NCc5ccc6c(c5)CN(C5CCC(=O)NC5=O)C6=O)CC4)c3)cn2)CC1 (stereo not drawn) [Compound 55]",
    "DC50": "> 1000 nM"
  }
]
